target-desc: T1, hu-M-IL1RAP construct, positions S21-T367 (extracellular domain of the membrane form of human IL1RAP) (human, UniProt Q9NPH3 21-367)
T1 construct: Biotinylated when captured on the Biacore chip
T1 sequence: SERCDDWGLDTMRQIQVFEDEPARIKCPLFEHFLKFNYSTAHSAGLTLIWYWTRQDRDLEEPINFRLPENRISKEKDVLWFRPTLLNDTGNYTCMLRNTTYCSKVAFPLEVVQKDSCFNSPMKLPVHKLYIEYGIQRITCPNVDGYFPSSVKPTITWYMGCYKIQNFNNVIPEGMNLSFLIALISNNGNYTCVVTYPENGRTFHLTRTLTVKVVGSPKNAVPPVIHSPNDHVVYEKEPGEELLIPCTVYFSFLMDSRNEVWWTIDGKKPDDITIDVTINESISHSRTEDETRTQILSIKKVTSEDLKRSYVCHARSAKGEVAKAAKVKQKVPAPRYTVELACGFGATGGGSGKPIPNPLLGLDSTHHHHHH
measurement-protocol: SPR, Fab analyte, 37 C
measured-quantity: Kd (nM)
Report only the number, with the unit nM understood.

Worked examples follow.
>>> recorded_measurement("H2 Fab (VH R96D) (Fab, V domains shown, Fab with 8xHis tag) VH: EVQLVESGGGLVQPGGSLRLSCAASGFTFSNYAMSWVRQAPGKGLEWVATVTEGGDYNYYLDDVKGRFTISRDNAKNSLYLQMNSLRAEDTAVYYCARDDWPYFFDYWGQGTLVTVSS VL: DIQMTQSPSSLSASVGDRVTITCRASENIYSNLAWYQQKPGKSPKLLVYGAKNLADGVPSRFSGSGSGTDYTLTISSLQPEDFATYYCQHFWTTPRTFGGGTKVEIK")
0.112
>>> recorded_measurement("K17 Fab (VL A51Y/W92K) (Fab, V domains shown, Fab with 8xHis tag) VH: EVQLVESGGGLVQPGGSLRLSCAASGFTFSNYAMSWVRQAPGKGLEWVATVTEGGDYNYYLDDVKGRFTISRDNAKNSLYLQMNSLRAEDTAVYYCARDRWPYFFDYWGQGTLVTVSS VL: DIQMTQSPSSLSASVGDRVTITCRASENIYSNLAWYQQKPGKSPKLLVYGYKNLADGVPSRFSGSGSGTDYTLTISSLQPEDFATYYCQHFKTTPRTFGGGTKVEIK")
0.0441

# input for lookup
Which Kd value belongs to H9 Fab (VH G54V/R96A) (Fab, V domains shown, Fab with 8xHis tag) VH: EVQLVESGGGLVQPGGSLRLSCAASGFTFSNYAMSWVRQAPGKGLEWVATVTEGVDYNYYLDDVKGRFTISRDNAKNSLYLQMNSLRAEDTAVYYCARDAWPYFFDYWGQGTLVTVSS VL: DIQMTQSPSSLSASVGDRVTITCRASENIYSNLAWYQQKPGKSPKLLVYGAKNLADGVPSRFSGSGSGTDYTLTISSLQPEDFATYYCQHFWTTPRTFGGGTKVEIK ?
0.0811
